Overview of recorded pIC50 for various molecules
# Test System: KIT D816V kinase activity (KIT autophosphorylation at tyrosine 719) in HMC1.2 cells (Homo sapiens (Human), UniProt P10721, D816V/V560G)
# Sequence (P10721 26-976 V560G/D816V): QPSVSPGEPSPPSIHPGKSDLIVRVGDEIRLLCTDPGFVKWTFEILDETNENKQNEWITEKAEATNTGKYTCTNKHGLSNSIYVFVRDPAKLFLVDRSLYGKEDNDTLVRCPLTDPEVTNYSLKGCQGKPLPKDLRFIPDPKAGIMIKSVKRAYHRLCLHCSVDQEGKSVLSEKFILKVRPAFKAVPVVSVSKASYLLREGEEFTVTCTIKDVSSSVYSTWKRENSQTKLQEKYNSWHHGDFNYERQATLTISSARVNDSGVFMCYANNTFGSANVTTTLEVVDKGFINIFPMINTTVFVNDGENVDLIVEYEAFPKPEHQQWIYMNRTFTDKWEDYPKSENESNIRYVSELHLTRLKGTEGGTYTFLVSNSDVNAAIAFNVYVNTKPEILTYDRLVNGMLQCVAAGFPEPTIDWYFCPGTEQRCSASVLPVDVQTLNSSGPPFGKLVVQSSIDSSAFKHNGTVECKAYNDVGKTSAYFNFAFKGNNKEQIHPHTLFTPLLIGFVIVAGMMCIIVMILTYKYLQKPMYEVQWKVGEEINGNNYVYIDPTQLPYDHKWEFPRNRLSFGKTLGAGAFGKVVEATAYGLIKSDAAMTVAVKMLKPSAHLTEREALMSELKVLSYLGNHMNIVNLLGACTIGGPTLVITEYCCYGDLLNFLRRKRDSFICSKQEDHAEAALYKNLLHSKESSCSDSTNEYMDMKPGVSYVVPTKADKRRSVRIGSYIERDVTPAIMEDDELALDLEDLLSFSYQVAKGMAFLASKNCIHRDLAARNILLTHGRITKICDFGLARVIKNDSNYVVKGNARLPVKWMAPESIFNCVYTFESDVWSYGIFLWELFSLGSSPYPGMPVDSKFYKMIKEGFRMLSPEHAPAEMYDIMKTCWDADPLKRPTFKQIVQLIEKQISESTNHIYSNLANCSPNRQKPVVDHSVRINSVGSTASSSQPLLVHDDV
# Assay Procedure: HMC1.2 autophosphorylation assay (phospho-Y719 c-KIT AlphaLISA)
# Particulars: HMC1.2 mast cell leukemia cell line (KIT V560G, D816V), 90 minutes compound; read-out: INH-KIT-PHOS-HMC1.2
pIC50: −log10 of the molar value.

Solved entries:
Query block: Look at this molecule and give its reported pIC50. Cc1cc(-c2cc3c(N4CCN(c5ncc([C@@](C)(O)c6ccc(F)cc6)cn5)CC4)ncnn3c2)no1 (single isomer, unassigned) [Compound 52]
Result block: 6.00 to 7.00

Query block: Any idea what its pIC50 is? The molecule is Cc1ccc(-c2cc3c(N4CCN(c5ncc([C@@](C)(O)c6ccc(F)cc6)cn5)CC4)ncnn3c2)cc1 [Compound 59]
Result block: 6.00 to 7.00

Query block: Request the reported pIC50 associated with C[C@](O)(c1ccc(F)cc1)c1cnc(N2CCN(c3ncnn4cc(-c5cccc(F)c5)cc34)CC2)nc1 [Compound 66]
Result block: 6.00 to 7.00

Query block: // pIC50 lookup, key: Cn1cc(-c2cc3c(N4CCN(c5ncc([C@](C)(N)c6ccc(F)cc6F)cn5)CC4)ncnn3c2)cn1 [Compound 86]
Result block: > 7.30

Query block: Give the measured pIC50 of C[C@](N)(c1ccc(F)cc1)c1cnc(N2CCN(c3ncnn4cc(-c5cn[nH]c5)cc34)CC2)nc1 [Compound 26] .
Result block: > 7.30

Query block: Query: pIC50; subject: Cn1cc(-c2cc3c(N4CCN(c5ncc([C@](C)(O)c6ccc(F)cc6)cn5)CC4)ncnn3c2)cn1 [Compound 45]
Result block: > 7.30

Now consider a different molecule.
Query block: Looking for the measured pIC50 of Cn1cc(-c2cn3ncnc(N4CCN(c5ncc([C@@](C)(O)c6ccc(F)cc6)cn5)CC4)c3c2Cl)cn1 [Compound 108] , can you help?
Result block: 5.00 to 6.00

====

# Test System: D816V KIT (Homo sapiens (Human), UniProt P10721, D816V)
# Sequence (P10721 26-976 D816V): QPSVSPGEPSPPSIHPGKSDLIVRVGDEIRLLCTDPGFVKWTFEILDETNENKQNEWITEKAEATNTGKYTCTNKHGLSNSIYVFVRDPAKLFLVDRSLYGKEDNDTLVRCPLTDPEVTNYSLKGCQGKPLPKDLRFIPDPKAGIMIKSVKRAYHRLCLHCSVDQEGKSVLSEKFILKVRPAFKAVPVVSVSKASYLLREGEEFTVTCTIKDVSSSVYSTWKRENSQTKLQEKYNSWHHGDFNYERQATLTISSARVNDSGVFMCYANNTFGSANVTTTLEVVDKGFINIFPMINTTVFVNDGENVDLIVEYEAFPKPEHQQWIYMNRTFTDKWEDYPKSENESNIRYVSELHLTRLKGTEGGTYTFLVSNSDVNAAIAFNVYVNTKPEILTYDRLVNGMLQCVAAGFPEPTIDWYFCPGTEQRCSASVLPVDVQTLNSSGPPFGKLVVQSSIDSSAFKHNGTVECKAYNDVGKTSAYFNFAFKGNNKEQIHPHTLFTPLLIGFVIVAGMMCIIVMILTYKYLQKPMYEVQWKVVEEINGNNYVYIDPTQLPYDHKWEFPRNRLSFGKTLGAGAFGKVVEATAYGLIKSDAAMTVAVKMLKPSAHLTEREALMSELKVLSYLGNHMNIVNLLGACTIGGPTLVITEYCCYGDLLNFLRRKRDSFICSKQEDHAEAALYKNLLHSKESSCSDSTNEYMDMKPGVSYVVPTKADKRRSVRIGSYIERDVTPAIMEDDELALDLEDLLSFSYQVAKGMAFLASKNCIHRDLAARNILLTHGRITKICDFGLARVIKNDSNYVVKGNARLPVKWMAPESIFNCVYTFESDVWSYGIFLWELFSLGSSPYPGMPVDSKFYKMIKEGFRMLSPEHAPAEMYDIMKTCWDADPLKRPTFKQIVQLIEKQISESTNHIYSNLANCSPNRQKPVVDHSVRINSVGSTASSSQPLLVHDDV
# Assay Procedure: KIT D816V assay at Km (Caliper electrophoretic mobility shift)
# Particulars: biochemical, 15 uM ATP (Km), 90 minutes at 25 C; read-out: INH KIT D816V
pIC50: −log10 of the molar value.
Listing: pIC50 of selected compounds

The examples below pair each entry with its known result.
Query block: Please give the measured pIC50 for this compound: Cn1cc(-c2cn3ncnc(N4CCN(c5ncc([C@@](C)(O)c6ccc(F)cc6)cn5)CC4)c3c2Cl)cn1
Result block: < 7.00

Query block: Could you tell me which pIC50 is on file for Cc1cc(-c2cc3c(N4CCN(c5ncc([C@@](C)(O)c6ccc(F)cc6)cn5)CC4)ncnn3c2)no1 (single isomer, unassigned) ?
Result block: 8.00 to 9.00

Query block: Please look up its pIC50: C[C@](N)(c1ccccc1)c1cnc(N2CCN(c3ncnn4cc(-c5ccc(F)cc5)cc34)CC2)nc1
Result block: > 9.00

Query block: Using the record for CCn1cc(-c2cc3c(N4CCN(c5ncc([C@@](C)(N)c6ccccc6)cn5)CC4)ncnn3c2)cn1 , report its pIC50.
Result block: > 9.00

Query block: Which pIC50 is listed for Cn1cc(-c2cc3c(N4CCN(c5ncc([C@@H](CO)c6ccc(F)cc6)cn5)CC4)ncnn3c2)cn1 ?
Result block: > 9.00

***
Query block: So what's the measured pIC50 for this one? Cn1cc(-c2cc3c(N4CCN(c5ncc([C@@](C)(O)c6ccc(F)cc6Cl)cn5)CC4)ncnn3c2)cn1
Result block: 8.00 to 9.00

Query block: Given Cn1cc(-c2cc3c(N4CCN(c5ncc([C@H](N)c6ccccc6)cn5)CC4)ncnn3c2)cn1 , state its recorded pIC50.
Result block: 8.00 to 9.00

Query block: Need pIC50 of C[C@](O)(c1ccc(F)cc1)c1cnc(N2CCN(c3ncnn4cc(-c5ccc(F)cc5)cc34)CC2)nc1 , thanks.
Result block: 8.00 to 9.00

Query block: GET /values?readout=pIC50&item= C[C@H](O)Cn1cc(-c2cc3c(N4CCN(c5ncc(Sc6ccccc6F)cn5)CC4)ncnn3c2)cn1
Result block: 8.00 to 9.00

Query block: Which pIC50 is reported for this compound? C[C@@](O)(c1ccc(F)cc1)c1cnc(N2CCN(c3ncnn4cc(-c5cn[nH]c5)cc34)CC2)nc1
Result block: 8.00 to 9.00

Query block: Fill in: pIC50 of Cn1cc(-c2cc3c(N4CCN(c5ncc([C@H](CO)c6ccc(F)cc6)cn5)CC4)ncnn3c2)cn1 is ___
Result block: 8.00 to 9.00

Query block: // pIC50 lookup, key: Cn1cc(-c2cc3c(N4CCN(c5ncc([C@H](N)c6ccc(F)cc6)cn5)CC4)ncnn3c2)cn1
Result block: 8.00 to 9.00

====

Reported values of pIC50 for individual entries
# Test System: KIT D816V kinase activity (KIT autophosphorylation at tyrosine 719) in HMC1.2 cells (Homo sapiens (Human), UniProt P10721, D816V/V560G)
# Assay Procedure: HMC1.2 autophosphorylation assay (phospho-Y719 c-KIT AlphaLISA)
# Particulars: HMC1.2 mast cell leukemia cell line (KIT V560G, D816V), 90 minutes compound; read-out: INH-KIT-PHOS-HMC1.2
pIC50: −log10 of the molar value.

Before answering, review these 5 worked examples.
Query block: Can you look up the measured pIC50 of Cn1cc(-c2cc3c(N4CCN(c5ncc([C@@](O)(c6ccc(F)cc6)C(F)F)cn5)CC4)ncnn3c2)cn1 [Compound 117] for me?
Result block: > 7.30

Query block: Consider the compound Cn1cc(-c2cc3c(N4CCN(c5ncc([C@@](O)(c6ccc(F)cc6)C6CC6)cn5)CC4)ncnn3c2)cn1 [Compound 104] and give its measured pIC50.
Result block: 6.00 to 7.00

Query block: # input compound: Cn1cc(-c2cn3ncnc(N4CCN(c5ncc(C(C)(O)c6ccc(F)cc6)cn5)CC4)c3c2Cl)cn1 (stereo in doubt) [Compound 107] ; wanted: its pIC50
Result block: 5.00 to 6.00

Query block: Fill in the blank: the reported pIC50 of Cn1cc(-c2cc3c(N4CCN(c5ncc([C@](C)(N)c6c(F)cc(F)cc6F)cn5)CC4)ncnn3c2)cn1 [Compound 113] is ____.
Result block: > 7.30

Query block: So what does the record say about pIC50 for Cc1nn(C)cc1-c1cc2c(N3CCN(c4ncc([C@](C)(O)c5ccc(F)cc5)cn4)CC3)ncnn2c1 (single isomer, unassigned) [Compound 71] ?
Result block: 7.00 to 7.30

Further cases:
Query block: Find the recorded pIC50 belonging to c1ccc(Cc2cnc(N3CCN(c4ncnn5cc(-c6cnn(C[C@@H]7CNCCO7)c6)cc45)CC3)nc2)cc1 [Compound 120] and report it.
Result block: 7.00 to 7.30

====

# Test System: D816V KIT (Homo sapiens (Human), UniProt P10721, D816V)
# Assay Procedure: KIT D816V assay at Km (Caliper electrophoretic mobility shift)
# Particulars: biochemical, 15 uM ATP (Km), 90 minutes at 25 C; read-out: INH KIT D816V
Experimental Readout: IC50

Query block: What measured IC50 goes with COc1ccc(-c2cc3c(N4CCN(c5ccccc5)CC4)ncnn3c2)cc1OC ?
Result block: 0.01 to 0.1 µM

---
Query block: Which measured IC50 value corresponds to Cc1nn(C)cc1-c1cc2c(N3CCN(c4ncc([C@](C)(O)c5ccc(F)cc5)cn4)CC3)ncnn2c1 (single isomer, unassigned) ?
Result block: 0.00101 to 0.01 µM

Query block: Query: IC50; subject: C[C@@H](c1ccccc1)c1cnc(N2CCN(c3ncnn4cc(-c5cnn(C)c5)cc34)CC2)nc1
Result block: < 0.001 µM

Query block: Which measured IC50 value corresponds to COc1ccc(-c2cc3c(N4CCN(c5ncc(Cc6ccccc6)cn5)CC4)ncnn3c2)cc1 ?
Result block: 0.01 to 0.1 µM

Query block: Endpoint output: IC50 of Cn1cc(-c2cc3c(N4CCN(c5ncc([C@](C)(O)c6ccc(Cl)cc6)cn5)CC4)ncnn3c2)cn1 . Value?
Result block: 0.00101 to 0.01 µM

Query block: Entry Cn1cc(-c2cc3c(N4CCN(c5ncc([C@@](N)(c6ccc(F)cc6)C(F)(F)F)cn5)CC4)ncnn3c2)cn1 : reported IC50 = ?
Result block: 0.00101 to 0.01 µM

====

Known pIC50 of a selection of compounds
# Test System: KIT D816V kinase activity (KIT autophosphorylation at tyrosine 719) in HMC1.2 cells (Homo sapiens (Human), UniProt P10721, D816V/V560G)
# Assay Procedure: HMC1.2 autophosphorylation assay (phospho-Y719 c-KIT AlphaLISA)
# Particulars: HMC1.2 mast cell leukemia cell line (KIT V560G, D816V), 90 minutes compound; read-out: INH-KIT-PHOS-HMC1.2
pIC50: −log10 of the molar value.

Here are 6 compounds together with their reported answers.
Query block: Entry Cn1cc(-c2cc3c(N4CCN(c5ncc([C@@](C)(N)c6ccc(F)cc6F)cn5)CC4)ncnn3c2)cn1 : reported pIC50 = ?
Result block: > 7.30

Query block: Return reported pIC50; argument: CN(C)[C@H](c1ccccc1)c1cnc(N2CCN(c3ncnn4cc(-c5cnn(C)c5)cc34)CC2)nc1
Result block: 5.00 to 6.00

Query block: What does the data say about its pIC50? Entry: Cc1ccc(-c2cc3c(N4CCN(c5ncc([C@](C)(O)c6ccc(F)cc6)cn5)CC4)ncnn3c2)s1
Result block: 5.00 to 6.00

Query block: # query: pIC50 of entry CN(C)C(=O)c1ccc(-c2cc3c(N4CCN(c5ccccc5)CC4)ncnn3c2)cc1
Result block: < 5.00

Query block: Consider the compound shown here: C[C@@H](c1ccc(F)cc1)c1cnc(N2CCN(c3ncnn4cc(-c5cnn(C)c5)cc34)C[C@H]2CO)nc1 What is its recorded pIC50?
Result block: > 7.30

Query block: Fill blank: measured pIC50 of the compound C[C@@](O)(c1ccc(F)cc1)c1cnc(N2CCN(c3ncnn4cc(-c5ccc(F)cc5)cc34)CC2)nc1 is ____.
Result block: 6.00 to 7.00

More entries:
Query block: # get_value(readout='pIC50', item= Cn1cc(-c2cc3c(N4CCN(c5ncc([C@@](C)(O)c6ccc(F)cc6F)cn5)CC4)ncnn3c2)cn1 )
Result block: > 7.30
